# Test Details: log P by reversed-phase HPLC analogously to OECD Guideline 117
# Assay type: physicochemical
# Test Parameters: [b] neutral range, pH 7.8, ammonium hydrogencarbonate/acetonitrile
# note: exactly 2 is not below, so it is not fulfilled; use fulfilled for LogP[b] strictly under it

INSERT INTO results (molecule, group) VALUES
  ('Cc1cc(C)c([S+]([O-])CC(F)(F)F)cc1-n1ccc(=O)n(CC(F)(F)F)c1=O (stereo not shown)', 'not fulfilled'),
  ('Cc1cc(F)c(-n2ccc(=O)n(Cc3ccc(F)cc3)c2=O)cc1SCC(F)(F)F', 'not fulfilled'),
  ('Cc1cc(F)c(-n2ccc(=O)n(CC#N)c2=O)cc1[S+]([O-])CC(F)(F)F (racemic)', 'fulfilled');

Query: Answer whether the molecule Cc1ccc(-n2ccc(=O)[nH]c2=O)cc1[S+]([O-])CC(F)(F)F (stereo not shown) has LogP[b] strictly less than 2
Result: fulfilled

Query: Input Cc1cc(F)c(-n2ncc(=O)n(Cc3ccccc3)c2=O)cc1SCC(F)(F)F ; condition: LogP[b] strictly below 2. Does it hold?
Result: not fulfilled
